Cited source for all entries: patent US11987645B2

Test system: peripheral blood mononuclear cells obtained from rheumatoid arthritis patients
experimentDescription: Inflammatory cytokine secretion after treating peripheral blood mononuclear cells of rheumatoid arthritis patients with apoB100-derived peptides #1 to #5
Assay type: cell-based, human
experimentalConditions: PBMC of rheumatoid arthritis patients; control non-binding peptide (NBP); FIG. 8
readoutKind: secretion level of TNF-α

Use these answered entries as a reference point.
Record summary for AICKEQHLFLPF (peptide #1) [apoB100 #1] : reported secretion level of TNF-α = decreased

Item: KNKYGMVAQVTQ (peptide #4) [apoB100 #4] | secretion level of TNF-α: markedly increased

So for CKEQHLFLPFSY (peptide #2) [apoB100 #2] , the logged secretion level of TNF-α turned out to be markedly increased

Form field secretion level of TNF-α, entry SYKNKYGMVAQV (peptide #3) [apoB100 #3] : decreased

Others:
secretion level of TNF-α in this record for TKKMGLAFESTK (peptide #5) [apoB100 #5] : decreased
